Below, each of the compounds is paired with its reported TGI value.
Tested on: MOLT-4 leukemia
Assay: NCI tumour cell line growth inhibition, 48 h
EXPERIMENTAL_READOUT: TGI

[[record]]
compound = "CC(=O)c1cc(I)c(O)c2ncccc12"
experimental_system = "MOLT-4 leukemia"
experimental_readout = "TGI"
obs_value = "5.77 µM"

[[record]]
compound = "C[CH2][Pb]([CH2]C)([CH2]C)[O]C(=O)COc1ccccc1"
experimental_system = "MOLT-4 leukemia"
experimental_readout = "TGI"
obs_value = "4.63 µM"

[[record]]
compound = "N#Cc1nc(C(O)c2ccccc2)oc1N (stereo unspecified)"
experimental_system = "MOLT-4 leukemia"
experimental_readout = "TGI"
obs_value = "> 100 µM"

[[record]]
compound = "CCCCCCCCCCC(O)CCCCCCC(=O)O (stereo unspecified)"
experimental_system = "MOLT-4 leukemia"
experimental_readout = "TGI"
obs_value = "34.5 µM"

[[record]]
compound = "CC(=O)c1c2c(cc3c1CC1(C3)Cc3cc4c(c(C(=O)O)c3C1)CCCC4)CCCC2 (stereo unspecified) (tested in a mixture with another compound)"
experimental_system = "MOLT-4 leukemia"
experimental_readout = "TGI"
obs_value = "43.9 µM"

[[record]]
compound = "COc1ccc2nc3cccc([N+](=O)[O-])c3c(NCCNCCO)c2c1"
experimental_system = "MOLT-4 leukemia"
experimental_readout = "TGI"
obs_value = "0.229 µM"

[[record]]
compound = "CC(=O)C1C(=O)C(=O)N(c2ccc(Cl)c(Cl)c2)C1=O (stereo unspecified)"
experimental_system = "MOLT-4 leukemia"
experimental_readout = "TGI"
obs_value = "> 100 µM"

[[record]]
compound = "c1ccc(C(NC2CCCCC2NCCNC2CCCCC2NC(c2ccccc2)(c2ccccc2)c2ccccc2)(c2ccccc2)c2ccccc2)cc1 (stereo unspecified)"
experimental_system = "MOLT-4 leukemia"
experimental_readout = "TGI"
obs_value = "> 100 µM"

[[record]]
compound = "Cc1ccc(Cl)cc1-c1nc(N)nc(Nc2ccc(Br)cc2)n1"
experimental_system = "MOLT-4 leukemia"
experimental_readout = "TGI"
obs_value = "> 22.1 µM"

[[record]]
compound = "c1ccc2c(c1)CCN2CCN1CCc2ccccc21"
experimental_system = "MOLT-4 leukemia"
experimental_readout = "TGI"
obs_value = "> 10 µM"

[[record]]
compound = "NC1C(O)C(O)C(CO)OC1n1cc(F)c(=O)[nH]c1=O (stereo unspecified)"
experimental_system = "MOLT-4 leukemia"
experimental_readout = "TGI"
obs_value = "> 100 µM"

[[record]]
compound = "CC1(C)CC[C@]2(C(N)=O)CC[C@]3(C)C(=CC[C@@H]4[C@@]5(C)C/C(=C/c6cccnc6)C(=O)C(C)(C)[C@@H]5CC[C@]43C)[C@@H]2C1"
experimental_system = "MOLT-4 leukemia"
experimental_readout = "TGI"
obs_value = "6.3 µM"

[[record]]
compound = "Cc1cc(C(C)C)cc(O)c(=O)c1"
experimental_system = "MOLT-4 leukemia"
experimental_readout = "TGI"
obs_value = "> 100 µM"

[[record]]
compound = "COC(=O)C1Cc2c([nH]c3ccccc23)C(c2ccccc2O)N1 (stereo unspecified)"
experimental_system = "MOLT-4 leukemia"
experimental_readout = "TGI"
obs_value = "> 100 µM"

[[record]]
compound = "Nc1ccc(I)cn1"
experimental_system = "MOLT-4 leukemia"
experimental_readout = "TGI"
obs_value = "> 100 µM"

[[record]]
compound = "CCOC(=O)/C(=C\\NCc1ccc2c(c1)OCO2)c1nc2ccccc2[nH]1"
experimental_system = "MOLT-4 leukemia"
experimental_readout = "TGI"
obs_value = "> 100 µM"

[[record]]
compound = "CC(C)C[C@H](NC(=O)Cn1ccc(Nc2ccccc2)cc1=O)B(O)O"
experimental_system = "MOLT-4 leukemia"
experimental_readout = "TGI"
obs_value = "11.7 µM"

[[record]]
compound = "CCOC(=O)c1c(SCc2ccccc2)nc2c3ccccc3ccn12"
experimental_system = "MOLT-4 leukemia"
experimental_readout = "TGI"
obs_value = "> 100 µM"

[[record]]
compound = "CC1=NN(C(=O)CC(=O)Nc2ccccc2)C(=O)C1N=Nc1ccc(C(=O)O)cc1 (stereo unspecified)"
experimental_system = "MOLT-4 leukemia"
experimental_readout = "TGI"
obs_value = "> 100 µM"

[[record]]
compound = "CC(=O)N1CCC(Nc2cc(C(=O)NC[C@H](O)CN3CCc4ccccc4C3)ncn2)CC1"
experimental_system = "MOLT-4 leukemia"
experimental_readout = "TGI"
obs_value = "> 100 µM"

[[record]]
compound = "O=C(N/N=C(\\CN1CCN(c2cc3[nH]cc(C(=O)O)c(=O)c3cc2F)CC1)c1ccc(Cl)cc1)c1ccncc1"
experimental_system = "MOLT-4 leukemia"
experimental_readout = "TGI"
obs_value = "52.6 µM"

